Each recorded value in this set is attributed to paper PMC11768771.

Listing of entries alongside the reported IC50.
# System: L. major promastigotes
# procedure summary: Leishmania major testing assay, promastigotes
# Assay type: cell-based
# recorded conditions: Leishmania major

molecule | assay target | qual | IC50, nM
COc1ccccc1C(=O)/C=C/c1c2ccccc2cc2ccccc12 [2MeO-Anth] | L. major promastigotes | = | 1800
COc1cc(OC)c(C(=O)/C=C/c2c3ccccc3cc3ccccc23)c(OC)c1 [246TMP-Anth] | L. major promastigotes | < | 1000
COc1ccc(C(=O)/C=C/c2c3ccccc3cc3ccccc23)c(OC)c1 [24DMP-Anth] | L. major promastigotes | = | 2200
COc1cc(OC)c(C(=O)/C=C/c2cccc(S(F)(F)(F)(F)F)c2)c(OC)c1 [246TMP-3SF5] | L. major promastigotes | = | 9200
COc1ccc(C(=O)/C=C/c2cccc([N+](=O)[O-])c2)c(OC)c1 [24DMP-3NO] | L. major promastigotes | < | 1000
